# Tested on: PPARg:RXRa 90nM:30nM, anti-RXR (NR concentration 90 nM, RXRa partner concentration 30 nM)
# measurement description: PBM binding z-score (relative to random genomic background probes); higher = stronger binding; sequences stand for … in GC…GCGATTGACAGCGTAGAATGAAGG
# PBM binding z-score per entry
Give your answer as a number; write no unit.

For the sequence shown here, "ACTTGGAGGACAAAGGTCAGAGCTACGCCAGTGA" , give the reported PBM binding z-score.
10.6

For the sequence shown here, "CCCACTGGGGCAAAGGTTACCATACTCAGTACGA" , give the reported PBM binding z-score.
11.5

Sample "CGTCCAAGGTCAGCAGGTCAGAGAAAGCGACGTG" — what was its PBM binding z-score?
3.69

I have this sequence here, "ATCGAAAGGTGGACGAGGTGAGTATACACCGTTT" , and I need its recorded PBM binding z-score.
0.402

Quick check: PBM binding z-score of "CGAACTAGGTCACCCGGACAGTGAAGAGGTTGGA" ?
6.25

Fill blank: measured PBM binding z-score of the sequence "CGAACTAGGTCACCAGGCCAGTGAAGAGGTTGGA" is ____.
6.44

Consider the sequence "CCGAGTAGGTTACGAGGGGGCATTCATTGCGAAT" and give its measured PBM binding z-score.
2.85

Fill in: PBM binding z-score of "ACTAGTTGCTCAGCTGAGGTCACACACAATTCGG" is ___
1.24

Item "CGATCTAGGTCACCAGGACAGTGAAGAGGTTGGA" has what recorded PBM binding z-score?
6.26

Record request: PBM binding z-score value, item "AGTAGCAGGCCAAGGGTCACTCAAGATTAGTCCG"
7.51

====

# Tested on: PPARg:RXRa 270nM:90nM, anti-RXR (NR concentration 270 nM, RXRa partner concentration 90 nM)
# measurement description: PBM binding z-score (relative to random genomic background probes); higher = stronger binding; sequences stand for … in GC…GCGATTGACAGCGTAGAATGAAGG
measured property: PBM binding z-score
Please give the numeric answer without any surrounding text.

// solved cases for PBM binding z-score follow
>>> quantitative_readout("CGAACTAGGCCAAAGGACAGTGAAAGGCGACGTA")
6.81
>>> quantitative_readout("ACTCGGAGGACAAAGGTCAGAACTACGCCAGTGA")
7.11
>>> quantitative_readout("AGAACGAGGGCAATGAGTTCATAGCACGGGTGGC")
1.57
>>> quantitative_readout("AGTCAAAGTTCACTAGGCAACGTAAGATTCAGCT")
6.21
>>> quantitative_readout("TCGAGTAGGCTACGGGGGCATTCAGGGATGAAGA")
2.51

I'd like to know its PBM binding z-score. The sequence in question is "TCTCGGAGGACACGAAAGGTCTGAGCTCGACATC"
1.01

Query: PBM binding z-score; subject: "TAGCCTAGGTCATTGGGCTAGTATAGTACGCATC"
3.08

# PBM binding z-score lookup, item "CGAACTAAGTCATCCAGGACAGTGAATACATTGA"
0.277

Please give the measured PBM binding z-score for this sequence: "ATATGTAGGTTAGGGTCATGCAGAAAGTAGGGAA"
6.66

# query: PBM binding z-score of entry "ATATGTAGGTTAGGCTCATTCAGAAAGTAGGGAA"
2.43

Suppose we examine the sequence "CGAACTAAGTCAAAGGACAGTGAAAGGCGACGTA" ; what PBM binding z-score value has been reported?
4.16

// lookup PBM binding z-score for "TCATATAGGTCAAAGGTGAAAGTCGGTGTGGTAA"
9.8

PBM binding z-score for "TCATATAGGTTAAGGTGAAAGTCGAACGATATGA" ?
4.61

What does the data say about its PBM binding z-score? Entry: "AATTCAGGGTCACTAGGCCAGAGTAGGTACGAAT"
7.59

// lookup PBM binding z-score for "CGTCTAAGGTCAAGGTCAGTGAAAGAGACTCGAA"
6.78

Look at this sequence and give its reported PBM binding z-score. "ACAGACAGGTGAGTGAAGGTCACTCAGCTGGACG"
1.98

I would be grateful if you could share the reported PBM binding z-score for "CGTCCAACGTCAAGGTCAGTGAAAGAGACTCGAA" .
0.216

I am curious: what PBM binding z-score value has been reported for "CGAACTAGGTCACCAGGACTGTGAAGAGGTTGGA" ?
6.81

Entry "ATATGTGGGTTAGGGTCATTCAGAAAGTAGGGAA" : reported PBM binding z-score = ?
6.42

Provenance of the data: the supplement of paper PMC6555819
